Tested on: U2OS
EXPERIMENT_SUMMARY: Multiplex assay against U2OS
Format: toxicity, cell-based
CONDITIONS_USED: human, 24 h, 1 µM, compound concentration 1 uM, replicate 2
Measured Population Membrane Permeable-Phenotype (%) by item

{"COMPOUND": "Cc1cn(-c2cc(NC(=O)c3ccc4c(c3)CN(c3cncnc3)C[C@@H]4C)cc(C(F)(F)F)c2)cn1", "MEASURED": "12%"}
{"COMPOUND": "CCCn1c(=O)c2[nH]c(C34CC5CC(CC3C5)C4)nc2n(CCC)c1=O", "MEASURED": "6%"}
{"COMPOUND": "COc1ccc(NS(=O)(=O)c2sc3ccc(Cl)cc3c2C)cc1N1CCNCC1.Cl", "MEASURED": "5%"}
{"COMPOUND": "CN(C)C/C=C/C(=O)Nc1cc2c(Nc3ccc(F)c(Cl)c3)ncnc2cc1O[C@H]1CCOC1.O=C(O)/C=C\\C(=O)O.O=C(O)/C=C\\C(=O)O [AFATINIB DIMALEATE]", "MEASURED": "15%"}
{"COMPOUND": "COc1cc2c(Nc3ccc(NC(=O)c4ccccc4)cc3)ncnc2cc1OCCCN1CCOCC1", "MEASURED": "44%"}

Please report the recorded Population Membrane Permeable-Phenotype (%) for Cc1nc(Cc2cccc(C(F)(F)F)c2)sc1-c1ccc(C(N)=O)nc1 [TP-024n] .
1%

====

List of Total Cell Count values.
System: Fibroblast
EXPERIMENT_SUMMARY: Multiplex assay against human fibroblast
Assay type: toxicity, cell-based
CONDITIONS_USED: 12 h, 10 µM, compound concentration 10 uM, replicate 2
Reply briefly: the number, and no unit.

Solved entries:
{"COMPOUND": "CC(C)(C)c1cnc(CSc2cnc(NC(=O)C3CCNCC3)s2)o1", "MEASURE_NAME": "Total Cell Count", "MEASURED": 69}
{"COMPOUND": "Cl.Cl.NC1(c2ccc(-c3nc4ccn5c(=O)[nH]nc5c4cc3-c3ccccc3)cc2)CCC1", "MEASURE_NAME": "Total Cell Count", "MEASURED": 114}

Now for a further compound.
Requested read-out: Total Cell Count. Entry: CN(C)C/C=C/C(=O)Nc1cc2c(Nc3ccc(F)c(Cl)c3)ncnc2cc1O[C@H]1CCOC1.O=C(O)/C=C\C(=O)O.O=C(O)/C=C\C(=O)O [AFATINIB DIMALEATE]
104

====

Test system: U2OS
EXPERIMENT_SUMMARY: Incucyte cell viability with U2OS; also: filed as whole numbers so only -1 and 0 and 1 occur
Type: toxicity, cell-based
CONDITIONS_USED: human, 0 h, 10 µM, compound concentration 10 uM, replicate number 2, timepoint 0 hours
MEASURE_NAME: Growth Rate
Number, no unit, nothing else.

{"SAMPLE_SMILES": "CC1=C(C#N)C(c2ccc3c(c2)c(NC(=O)c2ccccc2C)nn3C)C(C#N)=C(C)N1", "SYSTEM": "U2OS", "MEASURE_NAME": "Growth Rate", "MEASURED": 0}
{"SAMPLE_SMILES": "CCOC(=O)c1cc(C#N)c(N2CCC(C(=O)NS(=O)(=O)Cc3ccccc3)CC2)nc1C", "SYSTEM": "U2OS", "MEASURE_NAME": "Growth Rate", "MEASURED": 1}
{"SAMPLE_SMILES": "O=C(Nc1cccnc1)c1cc(-c2ccnc(F)c2)ccc1OCc1ccccc1", "SYSTEM": "U2OS", "MEASURE_NAME": "Growth Rate", "MEASURED": 0}
{"SAMPLE_SMILES": "Cc1cc(C)cc(C(=O)N(C)[C@H](Cc2ccc(-c3ccccc3)cc2)C(=O)N[C@@H](Cc2c[nH]c3ccccc23)C(=O)O)c1", "SYSTEM": "U2OS", "MEASURE_NAME": "Growth Rate", "MEASURED": 0}
{"SAMPLE_SMILES": "CS(=O)(=O)c1cc(C2(NC(=O)c3cncc4c3cnn4-c3ccc(F)cc3)CC2)ccn1", "SYSTEM": "U2OS", "MEASURE_NAME": "Growth Rate", "MEASURED": 1}

What value of measured Growth Rate is listed for Cc1cccc(NC(=O)N[C@@H]2N=C(c3ccccc3)c3ccccc3N(C)C2=O)c1 ?
1

Also, CCC(=O)N1CC[C@H](Nc2ncnc3c2CN(c2cnc(OC)c(C(F)(F)F)c2)CC3)C1 please.
1

Another: CCCn1c(=O)c2[nH]c(C34CC5CC(CC3C5)C4)nc2n(CCC)c1=O
0

====

Listed below: Population Mitochondria Different-Phenotype (%) values for each entry.
System: U2OS
EXPERIMENT_SUMMARY: Multiplex assay against U2OS
Format: toxicity, cell-based
CONDITIONS_USED: human, 24 h, 1 µM, compound concentration 1 uM, replicate 2
Quick reminder: number only, in %, skip the unit.

Illustrative cases are given below, each with its answer.
{"MOLECULE": "CC(=O)c1cc(-c2cc(C(=O)NC3CC3)ccc2C)c2ncccn12", "MEASURED": 9}
{"MOLECULE": "COc1cc2c(NC3CCN(C(C)C)CC3)nc(N3CCC(F)(F)CC3)nc2cc1OCCCN1CCCC1", "MEASURED": 7}
{"MOLECULE": "Cl.Cl.Nc1ncnc2c1c(-c1cccc(OCc3ccccc3)c1)cn2[C@H]1C[C@@H](CN2CCC2)C1", "MEASURED": 68}
{"MOLECULE": "CCCn1c(=O)c2[nH]c(C34CC5CC(CC3C5)C4)nc2n(CCC)c1=O [ROLOFYLLINE]", "MEASURED": 11}
{"MOLECULE": "Cl.Cl.NC1(c2ccc(-c3nc4ccn5c(=O)[nH]nc5c4cc3-c3ccccc3)cc2)CCC1", "MEASURED": 21}
{"MOLECULE": "CCOc1cc(N2CCC(O)CC2)ccc1Nc1ncc2c(n1)N(C1CCCC1)CCC(=O)N2C", "MEASURED": 20}
{"MOLECULE": "CNC(=O)c1nn(C)c2c1C(C)(C)Cc1cnc(Nc3ccc(N4CCN(C)CC4)cc3)nc1-2 [MILCICLIB]", "MEASURED": 83}
{"MOLECULE": "O=C(O)c1ccc2cc(-c3ccc(O)c(C45CC6CC(CC(C6)C4)C5)c3)ccc2c1 [O-DEMETHYLATED ADAPALENE]", "MEASURED": 30}

What is its Population Mitochondria Different-Phenotype (%) for U2OS? Entry: CN(C)C/C=C/C(=O)Nc1cc2c(Nc3ccc(F)c(Cl)c3)ncnc2cc1O[C@H]1CCOC1.O=C(O)/C=C\C(=O)O.O=C(O)/C=C\C(=O)O [AFATINIB DIMALEATE]
21

Next molecule up: CNc1oc(-c2cccc3ccccc23)nc1C#N
10

Next molecule up: CNC(=O)c1cc(Oc2ccc(NC(=O)Nc3cc(C(C)(C)C)nn3-c3ccc4ncccc4c3)c(F)c2)ccn1 [REBASTINIB]
26

====

Tested on: Fibroblast
EXPERIMENT_SUMMARY: Multiplex assay against human fibroblast
Format: toxicity, cell-based
CONDITIONS_USED: 48 h, 10 µM, compound concentration 10 uM, replicate 2
MEASURE_NAME: Total Cell Count
The response must contain the number and no unit.

{"COMPOUND": "CCCn1c(=O)c2[nH]c(C34CC5CC(CC3C5)C4)nc2n(CCC)c1=O", "Total Cell Count": 160}
{"COMPOUND": "Cc1cc2c(cc1N1C(=O)c3cccc4c(CCCO)ccc(c34)C1=O)n(C)c(=O)n2C", "Total Cell Count": 55}
{"COMPOUND": "COc1ccc(NS(=O)(=O)c2sc3ccc(Cl)cc3c2C)cc1N1CCNCC1.Cl", "Total Cell Count": 111}
{"COMPOUND": "C1=N/C2=N/c3ccc(OCCN4CCCC4)c(c3)COC/C=C\\COCc3cccc(c3)C(=C1)N2", "Total Cell Count": 78}
{"COMPOUND": "CCC(=O)O[C@]1(C(=O)SCF)[C@H](C)C[C@H]2[C@@H]3C[C@H](F)C4=CC(=O)C=C[C@]4(C)[C@@]3(F)[C@@H](O)C[C@@]21C [FLUTICASONE PROPIONATE]", "Total Cell Count": 176}
{"COMPOUND": "Nc1ccc(C(=O)Nc2cccc(-c3nc(N4CCOCC4)c4oc5ncccc5c4n3)c2)cn1", "Total Cell Count": 323}

Report Total Cell Count for COc1cc2c(NC3CCN(C(C)C)CC3)nc(N3CCC(F)(F)CC3)nc2cc1OCCCN1CCCC1 tested on Fibroblast.
426

====

Tested on: U2OS
EXPERIMENT_SUMMARY: Incucyte cell viability with U2OS; also: filed as whole numbers so only -1 and 0 and 1 occur
Assay type: toxicity, cell-based
CONDITIONS_USED: human, 18 h, 10 µM, compound concentration 10 uM, replicate number 1, timepoint 18 hours
MEASURE_NAME: Growth Rate

Known results for compounds:
{"COMPOUND": "CCCCN(CCCC)C(=O)CN1C[C@@H](c2ccc3c(c2)OCO3)[C@H](C(=O)O)[C@H]1c1ccc(OC)cc1", "Growth Rate": 0}
{"COMPOUND": "CC(=O)[C@@]1(O)CC[C@H]2[C@@H]3C[C@H](C)C4=CC(=O)CC[C@]4(C)[C@H]3CC[C@@]21C", "Growth Rate": 1}
{"COMPOUND": "C[C@@H](NCCc1ccc(O)cc1)[C@@H](O)c1ccc(O)cc1.Cl (relative stereo)", "Growth Rate": 1}

Next compound, please.
Identify the measured Growth Rate of Cc1cnc(-c2cc(Cl)ccc2F)cc1-n1c(=O)n(CC(N)=O)c2cnccc21 for U2OS.
0

Taken from ChEMBL document CHEMBL4689842.
